Each item that follows carries a reported inhibition of SARS-CoV-2 cytopathic effect.
System: Vero E6 infected with SARS-CoV-2
Assay: inhibition of SARS-CoV-2 cytopathic effect; higher = more antiviral protection, active = above 15
Details: 833.33 nM; 48 h
Value expressed in %; do not type the unit.

Observe how each entry below is paired with its result.
{"Molecule": "COc1ccc(OC)c(CN(C(C)=O)c2cc(F)ccc2Oc2ccccc2)c1", "Target Or Test System": "Vero E6 infected with SARS-CoV-2", "Observed Result": 3.55}
{"Molecule": "CC(COc1ccccc1)N(CCCl)Cc1ccccc1 (stereo not given) [phenoxybenzamine]", "Target Or Test System": "Vero E6 infected with SARS-CoV-2", "Observed Result": 0.91}
{"Molecule": "CN1CCC[C@@H]1Cc1c[nH]c2ccc(CCS(=O)(=O)c3ccccc3)cc12 [eletriptan]", "Target Or Test System": "Vero E6 infected with SARS-CoV-2", "Observed Result": -1.16}
{"Molecule": "NC(=O)c1ccc(I)c([N+](=O)[O-])c1 [iniparib]", "Target Or Test System": "Vero E6 infected with SARS-CoV-2", "Observed Result": 2.29}

Now for a further molecule.
Data request: Which inhibition of SARS-CoV-2 cytopathic effect value is on record for CO[C@@H]1COCC[C@@H]1N[C@@H]1CC[C@@](C(=O)N2CCc3ncc(C(F)(F)F)cc3C2)(C(C)C)C1 ?
Data returned: -0.05
